# Test system: Aspergillus fumigatus
# protocol-description: Antibacterial activity against Aspergillus fumigatus NCIM 902 after 72 hrs by disc diffusion method
# Assay type: functional
reported-endpoint: inhibition zone (IZ) (mm)
Answers are plain numbers, in mm.

Examples from the recorded data:
{"compound": "COc1cc(OC)cc(/C(Cl)=C/C=C/C(=O)c2c(O)cc(OC)cc2OC)c1", "unit-symbol": "mm", "inhibition zone (IZ)": 14}
{"compound": "COc1cc(O)c(C(=O)/C=C/C=C(\\Cl)c2ccc(Cl)cc2)c(OC)c1", "unit-symbol": "mm", "inhibition zone (IZ)": 17}
{"compound": "COc1cc(O)c(C(=O)/C=C/C=C(\\Cl)c2ccc(Cl)cc2Cl)c(OC)c1", "unit-symbol": "mm", "inhibition zone (IZ)": 17}
{"compound": "COc1cc(O)c(C(=O)/C=C/C=C(\\Cl)c2ccc(F)cc2)c(OC)c1", "unit-symbol": "mm", "inhibition zone (IZ)": 14}
{"compound": "COc1cc(O)c(C(=O)/C=C/C=C(\\Cl)c2ccccc2Cl)c(OC)c1", "unit-symbol": "mm", "inhibition zone (IZ)": 14}

Items follow; give inhibition zone (IZ) for each.
1. COc1cc(O)c(C(=O)/C=C/C=C(\Cl)c2ccc(Br)cc2)c(OC)c1
2. COc1ccc(/C(Cl)=C/C=C/C(=O)c2c(O)cc(OC)cc2OC)c(OC)c1

## Result
20
10

Items follow; give inhibition zone (IZ) for each.
1. COc1cccc(/C(Cl)=C/C=C/C(=O)c2c(O)cc(OC)cc2OC)c1
2. OC(Cn1cncn1)(Cn1cncn1)c1ccc(F)cc1F [FLUCONAZOLE]

## Result
1. 16
2. 20

## Task Give the measured inhibition zone (IZ) of COc1cc(O)c(C(=O)/C=C/C=C(\Cl)c2ccc(C)cc2)c(OC)c1 .
## Result 10

----------
# Tested on: Aspergillus fumigatus
# protocol-description: Antibacterial activity against Aspergillus fumigatus NCIM 902 after 72 hrs by disc diffusion method
# Assay type: functional
# experimental-conditions: Aspergillus fumigatus, NCIM 902, 72 h
Kindly state MIC for each of the entries shown.
Answers are plain numbers, in µg/mL.

{"molecule": "COc1cc(O)c(C(=O)/C=C/C=C(\\Cl)c2ccc(Cl)cc2Cl)c(OC)c1", "MIC [µg/mL]": 50}
{"molecule": "COc1cc(O)c(C(=O)/C=C/C=C(\\Cl)c2ccccc2Cl)c(OC)c1", "MIC [µg/mL]": 50}
{"molecule": "COc1cc(O)c(C(=O)/C=C/C=C(\\Cl)c2ccc(Br)cc2)c(OC)c1", "MIC [µg/mL]": 25}
{"molecule": "COc1cccc(/C(Cl)=C/C=C/C(=O)c2c(O)cc(OC)cc2OC)c1", "MIC [µg/mL]": 50}
{"molecule": "OC(Cn1cncn1)(Cn1cncn1)c1ccc(F)cc1F [FLUCONAZOLE]", "MIC [µg/mL]": 25}
{"molecule": "COc1cc(O)c(C(=O)/C=C/C=C(\\Cl)c2ccc(F)cc2)c(OC)c1", "MIC [µg/mL]": 50}
{"molecule": "COc1cc(O)c(C(=O)/C=C/C=C(\\Cl)c2ccc(Cl)cc2)c(OC)c1", "MIC [µg/mL]": 25}

## Task Give the measured MIC of COc1cc(OC)cc(/C(Cl)=C/C=C/C(=O)c2c(O)cc(OC)cc2OC)c1 .
## Result 50
